Source listed as the RepoRT retention time repository (doi:10.1016/j.chroma.2014.05.003).

# assay_explanation: RP, Agilent ZORBAX Eclipse Plus C18, 50 × 4.6 mm, 1.8 µm, 0.5 mL/min, estimated dead time 1.1 min; A: water + 0.1% formic acid; B: acetonitrile + 0.1% formic acid; gradient (min/%B) 0/10 3/10 25/100 28/100
# condition_label: stereoisomer not certain
assay_readout: LC retention time (min)
# unit: min | format: bare number

I have this compound here, Nc1ncn[nH]1 , and I need its recorded LC retention time.
1.36

What does the data say about its LC retention time? Entry: CN(C)C1C(=O)C(C(N)=O)=C(O)C2(O)C(=O)C3=C(O)c4c(O)cccc4C(C)(O)C3CC12 (configuration not stated)
6.62

Please look up its LC retention time: CSc1nnc(C(C)(C)C)c(=O)n1N
11.5

State the recorded LC retention time for this entry: CCCCC1C(=O)N(c2ccccc2)N(c2ccccc2)C1=O
17.2

Please look up its LC retention time: Cc1c(C(C)C)c(=O)n(-c2ccccc2)n1C
11.9

Return reported LC retention time; argument: CCOC(=O)CC(SP(=S)(OC)OC)C(=O)OCC (configuration not stated)
17

Form field: reported LC retention time of CCOP(=S)(OCC)SCSP(=S)(OCC)OCC
21.7

May I ask what LC retention time has been recorded for CN1CCC23c4c5ccc(O)c4OC2C(O)C=CC3C1C5 (configuration not stated) ?
1.47

Find the recorded LC retention time belonging to CCNc1nc(NC(C)C(C)C)nc(SC)n1 (configuration not stated) and report it.
13.1

Quick check: LC retention time of CCOP(=O)(NC(C)C)Oc1ccc(SC)c(C)c1 (configuration not stated) ?
15.4

Entry CC(C)N1C(=O)N(c2ccccc2)CSC1=NC(C)(C)C : reported LC retention time = ?
18.3

Consider the compound CNC(=O)N(C)c1nnc(C(C)(C)C)s1 and give its measured LC retention time.
9.87

====

# assay_explanation: RP, Agilent ZORBAX Eclipse Plus C18, 50 × 4.6 mm, 1.8 µm, 0.5 mL/min, estimated dead time 1.1 min; A: water + 0.1% formic acid; B: acetonitrile + 0.1% formic acid; gradient (min/%B) 0/10 3/10 25/100 28/100
# condition_label: stereoisomer not certain
assay_readout: LC retention time
Kindly format the answer as number then unit.

LC retention time lookup needed for COc1ccc2c3c1OC1C(O)C=CC4C(C2)N(C)CCC341 (stereo unspecified) , thanks.
3.16 min

// query LC retention time value for entry O=C(O)c1ccccc1C(=O)Nc1cccc2ccccc12
11.7 min

# lookup: LC retention time of CCCN(CCC)C(=O)SCc1ccccc1
20.4 min

Recorded LC retention time of Cn1c(=O)c2[nH]cnc2n(C)c1=O , please.
2.8 min

Tell me the measured LC retention time of CCOP(=O)(SC(C)CC)N1CCSC1=O (stereo unspecified) , please.
12.7 min

Quick check: LC retention time of CN1C2CCC1CC(OC(=O)C(CO)c1ccccc1)C2 (stereo unspecified) ?
6.29 min

Could you tell me which LC retention time is on file for CCn1cc(C(=O)O)c(=O)c2ccc(C)nc21 ?
11.5 min

Look up LC retention time for this molecule: CC(C)NCC(O)COc1ccc(CC(N)=O)cc1 (stereo unspecified)
1.76 min

Data request, read-out LC retention time, for COC(=O)c1ccccc1S(=O)(=O)NC(=O)Nc1nc(C)cc(C)n1
12.2 min

Which value of LC retention time has been reported for CNC(=O)Oc1ccccc1OC(C)C in the records?
11.9 min

I am curious: what LC retention time value has been reported for NC(=O)Cc1cccc2ccccc12 ?
10 min

Given the molecule Cn1c(=O)[nH]c(=O)c2[nH]cnc21 , what is its reported LC retention time?
1.47 min

I would be grateful if you could share the reported LC retention time for Cc1ccnc(NS(=O)(=O)c2ccc(N)cc2)n1 .
5.73 min

Endpoint output: LC retention time of O=NN1CCCC1 . Value?
2.66 min

Can you share its LC retention time? I mean this molecule: CN(C)c1nc(=O)n(C2CCCCC2)c(=O)n1C
10.1 min

// lookup LC retention time for CC12CCC(=O)C=C1CCC1C2CCC2(C)C(O)CCC12 (stereo unspecified)
13.7 min

Entry CNC(=O)N(C)c1nc2ccccc2s1 : reported LC retention time = ?
12.1 min

Item under review: CCNC(C)Cc1ccccc1 (stereo unspecified) . Reported LC retention time?
5.85 min

LC retention time for Cc1cc(C2CC2)nc(Nc2ccccc2)n1 ?
14.3 min

Item CCCN(CC)CC1COC2(CCC(C(C)(C)C)CC2)O1 (stereo unspecified) has what recorded LC retention time?
12.5 min

Using the record for Cc1cc(C)c(C2=C(OC(=O)CC(C)(C)C)C3(CCCC3)OC2=O)c(C)c1 , report its LC retention time.
23.1 min

Could you share which LC retention time value was measured for CCC(=O)C(CC(C)N(C)C)(c1ccccc1)c1ccccc1 (stereo unspecified) ?
11.4 min

# get_value(readout='LC retention time', item= COC=C(C(=O)OC)c1ccccc1Oc1cc(Oc2ccccc2C#N)ncn1 )
15.8 min

LC retention time lookup needed for CCNc1nc(NCC)nc(SC)n1 , thanks.
8.74 min

What value of LC retention time has been reported for the following molecule? CC12CCC3C(=CCc4cc(O)ccc43)C1CCC2=O (stereo unspecified)
14.4 min

For the molecule shown here, Oc1ccccc1-c1ccccc1 , give the reported LC retention time.
16.3 min
